Attribute: C0
- test details: IV dog PK
- Assay type: in vivo
- assay setup: male, beagle, plasma, iv, 0.5 mg/kg, 0.5 mg/kg IV, plasma, read-out: C0 exposure, unbound
Respond with the bare value in nM.

>  <compound>
Cn1nc(-c2ccnn2C)cc1CNC(=O)c1cc(-c2ccco2)ccc1Cl [Compound 19d]

>  <C0, nM>
80

$$$$

Now for another entry.
*Q* Give the value of C0 reported for the following: Cc1ccc2c(c1)C(=O)N(c1ccc(NC(=O)c3occc3C)c(F)c1)C2=O [Compound 4, reference compound]
*A* 36.4

====

- study system: hERG (Homo sapiens)
- test details: hERG manual patch clamp assay
- Assay type: cell-based
experimental readout: IC50

*Q* Output measured IC50 for this item: Cn1nc(-c2ccnn2C)cc1CNC(=O)c1cc(-c2ccco2)ccc1Cl [Compound 19d]
*A* > 10 µM

====

- test details: brain exposure in rat AHL Cmax versus Ctrough study
- Format: in vivo
- assay setup: Sprague-Dawley, brain, oral, 3 mg/kg, pretreatment time 2.5 hr, read-out: Brain Unbound @EOT
experimental readout: concentration at 2.5 h (nM)
Write the number in nM without appending the unit.

*Q* Consider the compound Cn1nc(-c2ccnn2C)cc1CNC(=O)c1cc(-c2ccco2)ccc1Cl [Compound 19d] and give its recorded concentration at 2.5 h.
*A* 40

====

- test details: rat IV plasma:brain level (PBL) PK
- Format: in vivo
- assay setup: plasma, iv, 1 mg/kg; rat PK PBL experiment; read-out: Vss
experimental readout: Vd

*Q* For Cn1nc(-c2ccnn2C)cc1CNC(=O)c1cc(-c2ccco2)ccc1Cl [Compound 19d] , write its Vd.
*A* 1.78 L/kg

====

- test details: PK in parallel to rat locomotor battery
- Assay type: in vivo
- assay setup: brain; rat locomotor battery PK
experimental readout: Kp

*Q* Specify measured Kp for Cn1nc(-c2ccnn2C)cc1CNC(=O)c1cc(-c2ccco2)ccc1Cl [Compound 19d] .
*A* ~0.75

====

- test details: IV dog PK
- Format: in vivo
- assay setup: male, beagle, plasma, 0.5 mg/kg IV
experimental readout: half-life
Just so you know, I need the unit written after the number.

*Q* Answer with the recorded half-life for the compound listed here: Cc1ccc2c(c1)C(=O)N(c1ccc(NC(=O)c3occc3C)c(F)c1)C2=O [Compound 4, reference compound]
*A* 16.8 h

====

- study system: UniProt A0A8I3NTE8
- Sequence (A0A8I3NTE8 30-1195): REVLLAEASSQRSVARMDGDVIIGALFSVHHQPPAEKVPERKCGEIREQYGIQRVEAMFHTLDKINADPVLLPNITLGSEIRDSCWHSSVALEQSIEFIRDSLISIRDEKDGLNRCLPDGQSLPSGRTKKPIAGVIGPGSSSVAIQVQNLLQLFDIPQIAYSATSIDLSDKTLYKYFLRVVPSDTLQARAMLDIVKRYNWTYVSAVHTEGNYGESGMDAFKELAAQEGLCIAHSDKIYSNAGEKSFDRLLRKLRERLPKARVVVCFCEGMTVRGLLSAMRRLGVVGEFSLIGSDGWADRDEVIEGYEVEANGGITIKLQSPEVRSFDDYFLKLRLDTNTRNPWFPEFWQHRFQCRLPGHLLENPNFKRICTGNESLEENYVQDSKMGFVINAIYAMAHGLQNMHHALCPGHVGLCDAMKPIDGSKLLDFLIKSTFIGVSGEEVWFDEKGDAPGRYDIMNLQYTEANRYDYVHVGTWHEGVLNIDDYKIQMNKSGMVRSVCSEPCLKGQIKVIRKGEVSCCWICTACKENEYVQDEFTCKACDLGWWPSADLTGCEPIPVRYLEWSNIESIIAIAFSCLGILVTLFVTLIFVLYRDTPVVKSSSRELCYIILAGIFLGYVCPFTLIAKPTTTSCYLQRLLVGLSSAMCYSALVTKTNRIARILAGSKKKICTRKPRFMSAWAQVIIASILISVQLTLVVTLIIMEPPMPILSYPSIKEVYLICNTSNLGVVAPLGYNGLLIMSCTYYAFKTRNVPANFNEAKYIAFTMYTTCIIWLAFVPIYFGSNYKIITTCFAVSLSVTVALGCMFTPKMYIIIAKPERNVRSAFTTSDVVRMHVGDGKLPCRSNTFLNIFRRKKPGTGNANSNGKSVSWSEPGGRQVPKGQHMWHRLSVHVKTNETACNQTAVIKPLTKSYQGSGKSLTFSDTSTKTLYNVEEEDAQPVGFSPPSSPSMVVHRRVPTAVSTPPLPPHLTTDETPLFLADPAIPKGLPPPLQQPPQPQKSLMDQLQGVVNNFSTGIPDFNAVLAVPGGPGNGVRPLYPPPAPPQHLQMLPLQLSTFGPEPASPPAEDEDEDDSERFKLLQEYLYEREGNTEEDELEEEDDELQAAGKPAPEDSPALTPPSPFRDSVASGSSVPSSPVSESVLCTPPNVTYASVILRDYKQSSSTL
- test details: mGlu1 PAM assay, dog receptor
experimental readout: pEC50
pEC50 (log units): -log10 of the concentration in mol/L.

*Q* Return pEC50 for the following molecule: Cc1ccc2c(c1)C(=O)N(c1ccc(NC(=O)c3occc3C)c(F)c1)C2=O [Compound 4, reference compound]
*A* 6.40

====

- test details: brain exposure in rat AHL Cmax versus Ctrough study
- Assay type: in vivo
- assay setup: Sprague-Dawley, brain, oral, 60 mg/kg, pretreatment time 30 hr, read-out: Brain Unbound @EOT
experimental readout: concentration at 30 h (nM)
Answer in nM, number only, no unit symbol.

*Q* Please list concentration at 30 h recorded for the molecule Cn1nc(-c2ccnn2C)cc1CNC(=O)c1cc(-c2ccco2)ccc1Cl [Compound 19d]
*A* 6

====

- study system: rat mGlu1 (Rattus norvegicus)
- Sequence (P23385 19-1199): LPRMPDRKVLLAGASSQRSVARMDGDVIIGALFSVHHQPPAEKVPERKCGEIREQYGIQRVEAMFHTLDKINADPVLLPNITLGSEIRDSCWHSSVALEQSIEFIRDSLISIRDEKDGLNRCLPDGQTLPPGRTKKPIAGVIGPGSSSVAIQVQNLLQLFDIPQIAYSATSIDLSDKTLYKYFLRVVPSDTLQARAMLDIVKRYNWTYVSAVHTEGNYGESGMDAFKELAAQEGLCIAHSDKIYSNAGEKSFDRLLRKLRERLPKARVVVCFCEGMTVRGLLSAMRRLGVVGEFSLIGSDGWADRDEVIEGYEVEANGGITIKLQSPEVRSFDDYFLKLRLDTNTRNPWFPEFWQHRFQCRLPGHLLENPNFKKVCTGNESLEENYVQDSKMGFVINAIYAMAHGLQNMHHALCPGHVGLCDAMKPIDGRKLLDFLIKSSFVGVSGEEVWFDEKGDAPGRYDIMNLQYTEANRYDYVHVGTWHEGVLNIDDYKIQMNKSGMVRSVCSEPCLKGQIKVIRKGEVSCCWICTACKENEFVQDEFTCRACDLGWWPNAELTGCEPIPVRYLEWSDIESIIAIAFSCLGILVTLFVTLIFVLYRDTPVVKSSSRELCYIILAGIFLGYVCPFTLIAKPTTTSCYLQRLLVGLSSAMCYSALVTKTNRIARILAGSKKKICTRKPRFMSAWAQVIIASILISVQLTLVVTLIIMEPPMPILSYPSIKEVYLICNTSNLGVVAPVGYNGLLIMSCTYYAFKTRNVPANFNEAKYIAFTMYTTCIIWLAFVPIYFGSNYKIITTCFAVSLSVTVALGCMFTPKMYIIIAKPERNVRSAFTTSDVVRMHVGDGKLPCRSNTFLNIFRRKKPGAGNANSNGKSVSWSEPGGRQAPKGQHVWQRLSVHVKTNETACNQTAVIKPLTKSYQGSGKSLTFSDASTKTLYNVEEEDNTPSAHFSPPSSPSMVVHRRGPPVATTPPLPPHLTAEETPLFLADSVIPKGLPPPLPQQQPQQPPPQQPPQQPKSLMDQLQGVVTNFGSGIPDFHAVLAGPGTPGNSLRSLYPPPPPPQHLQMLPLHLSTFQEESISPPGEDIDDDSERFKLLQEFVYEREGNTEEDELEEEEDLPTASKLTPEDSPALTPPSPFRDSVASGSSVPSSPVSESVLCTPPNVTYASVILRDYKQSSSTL
- test details: mGlu1 calcium mobilization PAM assay
- Type: cell-based
- assay setup: PAM, calcium flux
experimental readout: rat mGlu1 Glumax (%)
Quick reminder: number only, in %, skip the unit.

Please review the entries below; each comes with its answer.
>  <compound>
O=C(NCc1cnn2ccccc12)c1cc(-c2ccccc2)ccc1Cl

>  <rat mGlu1 Glumax / %>
48

$$$$
>  <compound>
Cn1nc(-c2ccnn2C)cc1CNC(=O)c1cc(-c2ccco2)ccc1Cl [Compound 19d]

>  <rat mGlu1 Glumax / %>
124

$$$$
>  <compound>
Cn1nc(-c2cccnc2)cc1CNC(=O)c1cc(-c2ccco2)ccc1Cl [Compound 19c]

>  <rat mGlu1 Glumax / %>
116

$$$$
>  <compound>
O=C(NCc1cnc(-c2cccs2)s1)c1cc(-c2ccco2)ccc1Cl [Compound 15e]

>  <rat mGlu1 Glumax / %>
51

$$$$

*Q* Query rat mGlu1 Glumax for Cn1nc(-c2cccs2)cc1CNC(=O)c1cc(-c2ccco2)ccc1Cl [Compound 19a]
*A* 109

====

- study system: P-gp (MDR1) (Homo sapiens, UniProt P08183)
- Construct: expressed in transfected cells; host or cells: MDCK-MDR1
- Sequence (P08183 whole entry): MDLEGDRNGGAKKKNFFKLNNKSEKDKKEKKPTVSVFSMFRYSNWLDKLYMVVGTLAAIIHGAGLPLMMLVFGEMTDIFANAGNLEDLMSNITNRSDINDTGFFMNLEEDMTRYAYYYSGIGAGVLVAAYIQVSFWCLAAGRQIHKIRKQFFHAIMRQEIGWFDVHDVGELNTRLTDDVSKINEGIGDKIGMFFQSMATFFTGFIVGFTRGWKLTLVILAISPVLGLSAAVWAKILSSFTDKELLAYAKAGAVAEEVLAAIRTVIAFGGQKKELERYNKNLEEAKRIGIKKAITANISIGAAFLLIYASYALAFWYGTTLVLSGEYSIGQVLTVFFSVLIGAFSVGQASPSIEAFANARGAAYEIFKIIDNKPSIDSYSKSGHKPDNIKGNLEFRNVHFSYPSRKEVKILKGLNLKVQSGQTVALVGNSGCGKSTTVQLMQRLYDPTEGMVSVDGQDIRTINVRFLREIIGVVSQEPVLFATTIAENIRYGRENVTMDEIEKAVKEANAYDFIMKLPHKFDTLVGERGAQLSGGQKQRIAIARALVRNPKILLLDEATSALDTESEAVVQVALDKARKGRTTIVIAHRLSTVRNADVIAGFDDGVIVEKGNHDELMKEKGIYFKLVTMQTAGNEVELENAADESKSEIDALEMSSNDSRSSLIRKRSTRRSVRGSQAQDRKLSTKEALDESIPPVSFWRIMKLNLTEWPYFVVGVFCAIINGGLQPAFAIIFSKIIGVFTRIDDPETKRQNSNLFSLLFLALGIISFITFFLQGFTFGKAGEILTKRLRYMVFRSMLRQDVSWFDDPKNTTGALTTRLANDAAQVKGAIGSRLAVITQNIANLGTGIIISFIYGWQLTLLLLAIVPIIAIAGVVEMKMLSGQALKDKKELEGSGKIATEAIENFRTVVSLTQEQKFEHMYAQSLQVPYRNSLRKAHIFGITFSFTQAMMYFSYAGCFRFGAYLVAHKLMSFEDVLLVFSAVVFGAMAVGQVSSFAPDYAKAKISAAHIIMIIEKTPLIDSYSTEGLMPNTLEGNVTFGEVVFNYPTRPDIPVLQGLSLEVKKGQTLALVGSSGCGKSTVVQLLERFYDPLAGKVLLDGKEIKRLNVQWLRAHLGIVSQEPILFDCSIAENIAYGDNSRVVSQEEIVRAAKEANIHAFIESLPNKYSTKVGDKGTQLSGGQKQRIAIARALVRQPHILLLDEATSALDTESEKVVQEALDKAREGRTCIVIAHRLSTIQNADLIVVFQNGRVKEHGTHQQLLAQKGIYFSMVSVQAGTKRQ
- test details: MDCK-MDR1 permeability/efflux
- Assay type: in vitro ADME
- assay setup: human
experimental readout: Papp (×10⁻⁶ cm/s)
Expressed in ×10⁻⁶ cm/s, but write only the number.

*Q* Return reported Papp. Input compound: Cn1nc(-c2ccnn2C)cc1CNC(=O)c1cc(-c2ccco2)ccc1Cl [Compound 19d]
*A* 73

====

- study system: 3A4 (Homo sapiens, UniProt P08684)
- Sequence (P08684 whole entry): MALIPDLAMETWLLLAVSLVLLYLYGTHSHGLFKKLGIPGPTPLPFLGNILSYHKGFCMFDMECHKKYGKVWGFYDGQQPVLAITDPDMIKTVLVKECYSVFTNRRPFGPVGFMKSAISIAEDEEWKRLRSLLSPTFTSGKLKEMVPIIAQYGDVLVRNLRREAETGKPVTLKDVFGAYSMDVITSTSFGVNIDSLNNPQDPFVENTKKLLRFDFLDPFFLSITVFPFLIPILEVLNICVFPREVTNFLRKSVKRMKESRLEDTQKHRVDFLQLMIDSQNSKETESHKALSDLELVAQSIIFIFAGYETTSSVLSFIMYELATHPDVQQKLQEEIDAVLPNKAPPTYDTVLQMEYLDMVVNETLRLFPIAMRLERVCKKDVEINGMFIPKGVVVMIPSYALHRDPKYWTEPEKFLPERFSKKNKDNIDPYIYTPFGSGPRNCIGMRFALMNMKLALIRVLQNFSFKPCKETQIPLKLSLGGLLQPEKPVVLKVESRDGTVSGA
- test details: inhibition of cytochrome P450 enzymes
- Assay type: in vitro ADME
- Parameters: 0.1 mg/mL human liver microsomes (HLM) and Substrate Mix; from tissue; host or cells: human liver microsomes
- assay setup: human liver microsomes; read-out: CYP450 3A4 inhibition
experimental readout: pIC50
In plain terms, pIC50 is the concentration in mol/L turned into minus its base-10 logarithm.

*Q* Give the measured pIC50 for Cn1nc(-c2ccnn2C)cc1CNC(=O)c1cc(-c2ccco2)ccc1Cl [Compound 19d]
*A* 4.66

====

- test details: solubility (kinetic, FaSSIF, FaSSGF)
- Type: physicochemical
- assay setup: FaSSIF; read-out: FaSSIF solubility
experimental readout: solubility (µM)
Field format: number, assumed µM, no unit text.

*Q* Determine from records and report solubility for Cn1nc(-c2ccnn2C)cc1CNC(=O)c1cc(-c2ccco2)ccc1Cl [Compound 19d]
*A* 2.5

====

- test details: solubility (kinetic, FaSSIF, FaSSGF)
- Type: physicochemical
- assay setup: FaSSGF, fassgf or other biorelevant; read-out: FaSSGF solubility
experimental readout: solubility (µM)
The answer is to be given in µM; state only the numeric part.

*Q* Return solubility for the following compound: Cn1nc(-c2ccnn2C)cc1CNC(=O)c1cc(-c2ccco2)ccc1Cl [Compound 19d]
*A* 2.5

====

- test details: rat IV plasma:brain level (PBL) PK
- Assay type: in vivo
- assay setup: Sprague-Dawley, brain, 0.25 mg/kg/compound; rat IV PBL
experimental readout: Kp uu at 15 min

*Q* Provide measured Kp uu at 15 min value, entry: Cn1nc(-c2ccnn2C)cc1CNC(=O)c1cc(-c2ccco2)ccc1Cl [Compound 19d]
*A* 0.82

====

- test details: rat IV plasma:brain level (PBL) PK
- Assay type: in vivo
- assay setup: Sprague-Dawley, plasma, intravenous; rat PK PBL experiment; read-out: CLp
experimental readout: clearance

*Q* Complete the entry with clearance for O=C(NCc1cnn2ccccc12)c1cc(-c2ccco2)ccc1Cl
*A* 67.2 mL/min/kg

====

rat fubrain values, listed per item
- test details: brain homogenate binding
- Format: in vitro ADME, rat
- assay setup: fraction unbound
API note: the answer field is a bare number with no unit suffix.

Here's what some known entries look like.
>  <compound>
O=C(NCc1noc(-c2ccccc2)n1)c1cc(-c2ccco2)ccc1Cl [Compound 15b]

>  <rat fubrain>
0.005

$$$$
>  <compound>
Cn1nc(-c2cccnc2)cc1CNC(=O)c1cc(-c2ccco2)ccc1Cl [Compound 19c]

>  <rat fubrain>
0.021

$$$$
>  <compound>
Cn1nc(-c2ccnn2C)cc1CNC(=O)c1cc(-c2ccco2)ccc1Cl [Compound 19d]

>  <rat fubrain>
0.034

$$$$
>  <compound>
Cn1nc(C(F)(F)F)cc1CNC(=O)c1cc(-c2ccco2)ccc1Cl [Compound 15f]

>  <rat fubrain>
0.019

$$$$
>  <compound>
O=C(NCc1cnc(-c2cccs2)s1)c1cc(-c2ccco2)ccc1Cl [Compound 15e]

>  <rat fubrain>
0.002

$$$$
>  <compound>
Cn1nc(-c2cccs2)cc1CNC(=O)c1cc(-c2ccco2)ccc1Cl [Compound 19a]

>  <rat fubrain>
0.003

$$$$

*Q* Fill in reported rat fubrain for this entry: Cn1nc(-c2ccccc2F)cc1CNC(=O)c1cc(-c2ccco2)ccc1Cl [Compound 19b]
*A* 0.003

*Q* Please indicate rat fubrain recorded for O=C(NCc1cnn2ccccc12)c1cc(-c2ccco2)ccc1Cl
*A* 0.021

====

- study system: rat mGlu1 (Rattus norvegicus)
- test details: mGlu1 calcium mobilization PAM assay
- Assay type: cell-based
- assay setup: PAM, calcium flux
Reported EC50 values are given for each entry in this list.
Response body: numeric value in nM, unit text excluded.

Check out these entries, answers already filled in.
>  <compound>
O=C(NCc1cnn2ccccc12)c1cc(-c2ccco2)ccc1Cl

>  <numeric readout>
109

$$$$
>  <compound>
Cn1nc(-c2ccccc2F)cc1CNC(=O)c1cc(-c2ccco2)ccc1Cl [Compound 19b]

>  <numeric readout>
133

$$$$
>  <compound>
Cn1nc(-c2cccs2)cc1CNC(=O)c1cc(-c2ccco2)ccc1Cl [Compound 19a]

>  <numeric readout>
20

$$$$
>  <compound>
O=C(NCc1nc(C2CC2)no1)c1cc(-c2ccco2)ccc1Cl [Compound 15d]

>  <numeric readout>
509

$$$$
>  <compound>
O=C(NCc1cnn2ccccc12)c1cc(-c2cccs2)ccc1Cl

>  <numeric readout>
369

$$$$

*Q* // fetch EC50 for O=C(NCc1cnc(-c2cccs2)s1)c1cc(-c2ccco2)ccc1Cl [Compound 15e] ; system: rat mGlu1 (Rattus norvegicus)
*A* 301

*Q* Find the measured EC50 of O=C(NCc1noc(-c2ccccc2)n1)c1cc(-c2ccco2)ccc1Cl [Compound 15b] with rat mGlu1 (Rattus norvegicus) as test system.
*A* 62

*Q* For rat mGlu1 (Rattus norvegicus), give EC50 of the listed compound: Cn1nc(C(F)(F)F)cc1CNC(=O)c1cc(-c2ccco2)ccc1Cl [Compound 15f]
*A* 280

*Q* State the measured EC50 (rat mGlu1 (Rattus norvegicus)) of O=C(NCc1cnn2ccccc12)c1cc(-c2ccccc2)ccc1Cl
*A* 1010
